# Tested on: HL-60 (promyelocytic leukemia)
# Experimental details: Calcein AM cytotoxicity assay, HL60
# Format: cell-based, human
# Details: HL60, 72 hours
# From the text: Because toxic compounds negatively influence metabolic processes in cells, many standard cytotoxicity assays are based on measurement of metabolisation rate of various artificial substrates. Resulting product is then quantified e.g. by means of spectrometry. […] For evaluation of cytotoxic effect of the novel substituted 9-substituted cytokinin derivatives of this invention, a microtiter assay based on quantification of metabolisation of Calcein AM was used. […]
Measurement type: GI50 (µM)
The figure you give is taken to be in µM; do not add the unit.

Worked examples follow.
[
  {
    "Smi": "O=P(O)(O)OC[C@H]1O[C@@H](n2cnc3c(NCc4ccc(Br)cc4)ncnc32)[C@H](O)[C@@H]1O",
    "Test system": "HL-60 (promyelocytic leukemia)",
    "Unit spec": "µM",
    "GI50": 41.3
  },
  {
    "Smi": "O=P(O)(O)OC[C@H]1O[C@@H](n2cnc3c(NCc4ccc(F)c(Cl)c4)ncnc32)[C@H](O)[C@@H]1O",
    "Test system": "HL-60 (promyelocytic leukemia)",
    "Unit spec": "µM",
    "GI50": 3.1
  },
  {
    "Smi": "O=P(O)(O)OC[C@H]1O[C@@H](n2cnc3c(NCc4ccc(F)cc4)ncnc32)[C@H](O)[C@@H]1O",
    "Test system": "HL-60 (promyelocytic leukemia)",
    "Unit spec": "µM",
    "GI50": 0.69
  }
]

Turning to the following compound.
// field: GI50; key: Cc1ccccc1CNc1ncnc2c1ncn2[C@@H]1O[C@H](COP(=O)(O)O)[C@@H](O)[C@H]1O ; value = 3.1

* * *

# System: HL-60 (promyelocytic leukemia)
# Experimental details: Calcein AM cytotoxicity assay, HL60
# Format: cell-based, human
# Details: HL60, 72 hours
Sorting guide: entries reporting GI50 beneath 3 µM go in the true (1) pile, the rest go in the false (0) pile.

Solved cases below.
[
  {
    "Smi": "O=P(O)(O)OC[C@H]1O[C@@H](n2cnc3c(NCc4ccccc4Cl)ncnc32)[C@H](O)[C@@H]1O",
    "Class label": "true (1)"
  },
  {
    "Smi": "O=P(O)(O)OC[C@H]1O[C@@H](n2cnc3c(NCc4cccc(Br)c4)ncnc32)[C@H](O)[C@@H]1O",
    "Class label": "false (0)"
  }
]

Please check: GI50 for O=P(O)(O)OC[C@H]1O[C@@H](n2cnc3c(NCc4ccccc4F)ncnc32)[C@H](O)[C@@H]1O , strictly under 3 µM or not? false (0)

Please state whether GI50 is below 3 µM for O=P(O)(O)OC[C@H]1O[C@@H](n2cnc3c(NCc4ccc(F)c(F)c4F)ncnc32)[C@H](O)[C@@H]1O false (0)

* * *

# System: HL-60 (promyelocytic leukemia)
# Experimental details: Calcein AM cytotoxicity assay, HL60
# Assay type: cell-based, human
# Details: HL60, 72 hours
# Text: Because toxic compounds negatively influence metabolic processes in cells, many standard cytotoxicity assays are based on measurement of metabolisation rate of various artificial substrates. Resulting product is then quantified e.g. by means of spectrometry. […] For evaluation of cytotoxic effect of the novel substituted 9-substituted cytokinin derivatives of this invention, a microtiter assay based on quantification of metabolisation of Calcein AM was used. […]
Measurement type: GI50 (µM)
Give the quantity in µM, number only.

[
  {
    "Smi": "O=P(O)(O)OC[C@H]1O[C@@H](n2cnc3c(NCc4ccc(Cl)cc4Cl)ncnc32)[C@H](O)[C@@H]1O",
    "Measurement type": "GI50",
    "Unit spec": "µM",
    "Reported value": 72.4
  }
]

The measured GI50 associated with O=P(O)(O)OC[C@H]1O[C@@H](n2cnc3c(NCc4ccc(F)cc4Cl)ncnc32)[C@H](O)[C@@H]1O reads 7.9

Sure, the documented GI50 for O=P(O)(O)OC[C@H]1O[C@@H](n2cnc3c(NCc4c(F)ccc(F)c4F)ncnc32)[C@H](O)[C@@H]1O is 11.3

Data provenance: patent US20130040908A1
